Data origin: patent US11504441B2

experimental protocol: in vivo
Parameters: species or system mice
run parameters: male, NODSCID 1L2RγKO, mouse, iv, total radioactivity, Muscle uptake
Property: tissue uptake at 24 h; scope: individual compounds
Entry rule: numbers only, all in %ID/g.

compound	tissue uptake at 24 h, %ID/g
O=C(O)CCC[C@H](NC(=O)N[C@@H](CCCCNC(=O)[C@H](Cc1c2ccccc2cc2ccccc12)NC(=O)[C@H]1CC[C@H](CNC(=O)CN2CCN(CC(=O)O)CCN(CC(=O)O)CCN(CC(=O)O)CC2)CC1)C(=O)O)C(=O)O [177Lu-HTK03149, metal not drawn]	0.02
COc1ccc(CCCC(=O)NCC(=O)N[C@@H](CCCCNC(=O)CN2CCN(CC(=O)O)CCN(CC(=O)O)CCN(CC(=O)O)CC2)C(=O)NC[C@H]2CC[C@H](C(=O)N[C@@H](Cc3c4ccccc4cc4ccccc34)C(=O)NCCCC[C@H](NC(=O)N[C@@H](CSCC(=O)O)C(=O)O)C(=O)O)CC2)cc1 [177Lu-HTK04048, metal not drawn]	0.11
O=C(O)CCC[C@H](NC(=O)N[C@@H](CCCCNC(=O)[C@H](Cc1c2ccccc2cc2ccccc12)NC(=O)[C@H]1CC[C@H](CNC(=O)[C@H](CCCCNC(=O)CN2CCN(CC(=O)O)CCN(CC(=O)O)CCN(CC(=O)O)CC2)NC(=O)CNC(=O)CCCc2ccc(Cl)cc2)CC1)C(=O)O)C(=O)O [177Lu-HTK03153, metal not drawn]	0.56
COc1ccc(CCCC(=O)NCC(=O)N[C@@H](CCCCNC(=O)CN2CCN(CC(=O)O)CCN(CC(=O)O)CCN(CC(=O)O)CC2)C(=O)NC[C@H]2CC[C@H](C(=O)N[C@@H](Cc3c4ccccc4cc4ccccc34)C(=O)NCCCC[C@H](NC(=O)N[C@@H](CCCC(=O)O)C(=O)O)C(=O)O)CC2)cc1 [177Lu-HTK03170, metal not drawn]	0.08

Now examine the next entry.
**Query** Requested read-out: tissue uptake at 24 h. Entry: COc1ccc(CCCC(=O)NCC(=O)N[C@@H](CCCCNC(=O)CN2CCN(CC(=O)O)CCN(CC(=O)O)CCN(CC(=O)O)CC2)C(=O)NC[C@H]2CC[C@H](C(=O)N[C@@H](Cc3c4ccccc4cc4ccccc34)C(=O)NCCCC[C@H](NC(=O)N[C@@H](COCC(=O)O)C(=O)O)C(=O)O)CC2)cc1 [177Lu-HTK04028, metal not drawn]
**Result** 0.11
